tested_on: KRAS G12S (Homo sapiens (Human), UniProt P01116+P62937, G12S)
Sequence (P01116-2 other isoform, or with tags, fused parts or gaps G12S): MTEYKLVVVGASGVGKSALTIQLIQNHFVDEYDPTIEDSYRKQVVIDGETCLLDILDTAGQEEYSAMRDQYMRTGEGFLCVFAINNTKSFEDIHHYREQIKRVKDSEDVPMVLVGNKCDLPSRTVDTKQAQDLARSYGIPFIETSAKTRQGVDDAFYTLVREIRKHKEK
Sequence (P62937 whole entry): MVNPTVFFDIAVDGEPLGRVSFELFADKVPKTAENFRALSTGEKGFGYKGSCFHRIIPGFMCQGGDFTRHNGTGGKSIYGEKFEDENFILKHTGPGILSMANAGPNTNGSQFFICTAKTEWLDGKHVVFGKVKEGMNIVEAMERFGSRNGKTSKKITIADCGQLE
measurement_protocol: Ras-Raf (BRAF RBD) disruption / FRET / MOA assay, KRAS G12S
Format: biochemical
reported_conditions: Ras-Raf disruption/FRET/MOA assay; class symbols; read-out: KRAS G12S FRET data IC50
Method: The purpose of this biochemical assay is to measure the ability of test compounds to facilitate ternary complex formation between a nucleotide-loaded Ras isoform and cyclophilin A; the resulting ternary complex disrupts binding to a BRAF^RBD construct, inhibiting Ras signaling through a RAF effector. Compound is present in plate wells as a 10-point 3-fold dilution series starting at a final concentration of 30 μM. […]
Each entry below lists one item and its recorded IC50 value.

Examples from the recorded data:
compound="C=CC(=O)N1CC[C@H](C(=O)N(C)[C@H](C(=O)N[C@H]2Cc3cc(O)cc(c3)-c3ccc4c(c3)c(c(-c3cncnc3)n4CC)CC(C)(C)COC(=O)[C@@H]3CCCN(N3)C2=O)C(C)C)C1 [Example A061]" experimental_readout=IC50 experimental_value="1000 to 10000 nM"
compound="C=CC(=O)N1C[C@H](C)[C@H](C(=O)N(C)[C@H](C(=O)N[C@H]2Cc3cc(O)cc(c3)-c3ccc4c(c3)c(c(-c3cccnc3COC)n4CC)CC(C)(C)COC(=O)[C@@H]3CCCN(N3)C2=O)C2CCCC2)C1 [Example A057]" experimental_readout=IC50 experimental_value="100 to 1000 nM"

Let's switch to this compound now.
Using the record for C=CC(=O)N1CC[C@@]2(C1)CN(C(=O)N(C)[C@H](C(=O)N[C@H]1Cc3nc(cs3)-c3ccc4c(c3)c(c(-c3cccnc3[C@H](C)OC)n4CC)CC(C)(C)COC(=O)[C@@H]3CCCN(N3)C1=O)C(C)C)CCO2 (atropisomer, axis not shown) [Example A353] , report its IC50.
100 to 1000 nM
